System: L02 cells
measurement-notes: Cytotoxic activity against human normal liver cells (L02)
Type: cell-based
assay-conditions: human normal liver L02 cells
attribute-measured: IC50 (µM)
I only need the number, in µM, no unit after it.

Query: Consider the compound shown here: Cc1cc(O)c2c(c1)C(=O)c1cc(OCCCOC(=O)[C@@H](C)N)cc(O)c1C2=O.O=C(O)C(F)(F)F What is its recorded IC50?
Reply: 18.5
